Target: CYP450 2C19 (Homo sapiens)
Construct: from tissue; host or cells: human liver microsomes
Sequence (P33261 whole entry): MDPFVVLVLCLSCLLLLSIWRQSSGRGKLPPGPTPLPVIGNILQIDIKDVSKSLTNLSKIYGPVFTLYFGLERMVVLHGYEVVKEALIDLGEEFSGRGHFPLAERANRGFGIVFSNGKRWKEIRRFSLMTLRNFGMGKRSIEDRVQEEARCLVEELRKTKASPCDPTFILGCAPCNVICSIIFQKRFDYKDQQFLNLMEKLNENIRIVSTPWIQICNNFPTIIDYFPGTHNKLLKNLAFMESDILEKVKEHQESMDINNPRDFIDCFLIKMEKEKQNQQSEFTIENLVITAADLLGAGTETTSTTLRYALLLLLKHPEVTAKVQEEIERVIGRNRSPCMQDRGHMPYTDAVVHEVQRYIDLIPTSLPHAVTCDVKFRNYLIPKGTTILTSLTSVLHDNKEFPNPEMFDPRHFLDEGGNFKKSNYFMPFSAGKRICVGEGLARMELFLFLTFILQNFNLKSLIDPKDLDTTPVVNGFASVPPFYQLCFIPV
Assay: CYP enzyme single point inhibition test, human liver microsomes, 2C19
Format: in vitro ADME
Conditions: single point method
assay.metric: IC50 (µM)
Write the value in µM as a bare number.

Data request: Need IC50 of C=CC(=O)N1C[C@H](C)N(c2nc(=O)n(-c3c(SC)ccnc3C(C)C)c3nc(-c4c(N)ccc(Cl)c4F)c(Cl)cc23)C[C@H]1C (atropisomer, axis not shown) , thanks.
Data returned: 28.8

###

Test: Plasma stability, dog plasma
Format: in vitro ADME
Settings: dog plasma, 37° C., 60 min
assay.metric: Residual rate (%) 60 min

| molecule | endpoint.result |
| --- | --- |
| C=CC(=O)N1CCN(c2nc(=O)n(-c3c(C)ccnc3C(C)C)c3nc(-c4c(O)cccc4F)c(F)cc23)[C@@H](C)C1 [AMG 510, reference compound] | 93.43% |

Data request: Need Residual rate (%) 60 min of C=CC(=O)N1C[C@H](C)N(c2nc(=O)n(-c3c(SC)ccnc3C(C)C)c3nc(-c4c(N)ccc(Cl)c4F)c(Cl)cc23)C[C@H]1C (atropisomer, axis not shown) , thanks.
Data returned: 94.86%

Data request: Entry CC[C@H](C)C(=O)O[C@H]1C[C@@H](C)C=C2C=C[C@H](C)[C@H](CC[C@@H]3C[C@@H](O)CC(=O)O3)[C@H]21 [Lovastatin, reference compound] please
Data returned: 75.66%

Data request: Entry C=CC(=O)N1C[C@H](C)N(c2nc(=O)n(-c3c(SC)ccnc3C(C)C)c3nc(-c4c(O)cccc4F)c(Cl)cc23)C[C@H]1C (atropisomer, axis not shown) please
Data returned: 93.69%

###

Experiment: Pharmacokinetics in mice (plasma) after oral administration
Type: in vivo, Balb/c mice
Conditions: male, Balb/c, mouse, in vivo, po, 10 mg/kg
assay.metric: half-life

Data request: Need half-life of C=CC(=O)N1C[C@H](C)N(c2nc(=O)n(-c3c(SC)ccnc3C(C)C)c3nc(-c4c(N)ccc(Cl)c4F)c(Cl)cc23)C[C@H]1C (atropisomer, axis not shown) , thanks.
Data returned: 1 h

###

Experiment: Plasma stability, human plasma
Format: in vitro ADME
Details: human, 120 min, 0.5 μM
assay.metric: Residual rate (%) 120 min
Write the value in % as a bare number.

| molecule | Residual rate (%) 120 min |
| --- | --- |
| C=CC(=O)N1C[C@H](C)N(c2nc(=O)n(-c3c(SC)ccnc3C(C)C)c3nc(-c4c(O)cccc4F)c(Cl)cc23)C[C@H]1C (atropisomer, axis not shown) [Embodiment 14-1] | 78.85 |
| C=CC(=O)N1CCN(c2nc(=O)n(-c3c(C)ccnc3C(C)C)c3nc(-c4c(O)cccc4F)c(F)cc23)[C@@H](C)C1 [AMG 510, reference compound] | 64.44 |
| CC(C)[N+](C)(CCOC(=O)C1c2ccccc2Oc2ccccc21)C(C)C [Propantheline, reference compound] | 0.72 |

Data request: Need Residual rate (%) 120 min of C=CC(=O)N1C[C@H](C)N(c2nc(=O)n(-c3c(SC)ccnc3C(C)C)c3nc(-c4c(N)ccc(Cl)c4F)c(Cl)cc23)C[C@H]1C (atropisomer, axis not shown) [Embodiment 13-1] , thanks.
Data returned: 87.22

###

Assay: Plasma stability, dog plasma
Assay type: in vitro ADME
Conditions: dog plasma, 37° C., 30 min
Measured Residual rate (%) 30 min, listed per entry.
Units required after the number.

Examples with their reported Residual rate (%) 30 min follow.
| compound | Residual rate (%) 30 min |
| --- | --- |
| C=CC(=O)N1C[C@H](C)N(c2nc(=O)n(-c3c(SC)ccnc3C(C)C)c3nc(-c4c(N)ccc(Cl)c4F)c(Cl)cc23)C[C@H]1C (atropisomer, axis not shown) | 96.32% |
| CC[C@H](C)C(=O)O[C@H]1C[C@@H](C)C=C2C=C[C@H](C)[C@H](CC[C@@H]3C[C@@H](O)CC(=O)O3)[C@H]21 [Lovastatin, reference compound] | 95.45% |
| C=CC(=O)N1C[C@H](C)N(c2nc(=O)n(-c3c(SC)ccnc3C(C)C)c3nc(-c4c(O)cccc4F)c(Cl)cc23)C[C@H]1C (atropisomer, axis not shown) | 98.79% |

Please examine the following record next.
Data request: Need Residual rate (%) 30 min of C=CC(=O)N1CCN(c2nc(=O)n(-c3c(C)ccnc3C(C)C)c3nc(-c4c(O)cccc4F)c(F)cc23)[C@@H](C)C1 [AMG 510, reference compound] , thanks.
Data returned: 101.14%
